- Assay target: IRAK4 (Homo sapiens)
- Construct: Degradation of IRAK4 in OCI-LY10 was quantitatively measured using Meso Scale Discovery technology; endogenous in cells; host or cells: OCI-LY10
- Run description: IRAK4 MSD Degradation in OCI-LY10
- Format: cell-based
- Test parameters: OCI-LY10 cells, 4 hrs incubation, MSD; read-out: IRAK4 degradation in OCI-LY10 at 4 hrs: DC50
Metric name: DC50

Compound	Result
Cn1c(=O)n(C2CCC(=O)NC2=O)c2cccc(C#CCO[C@H]3CCN(C[C@H]4CC[C@H](n5cc(NC(=O)c6cnn7ccc(N8C[C@H]9C[C@@H]8CO9)nc67)c(C(F)F)n5)CC4)C[C@@H]3F)c21 (stereo partly shown) [I-23]	10 to 100 nM

DC50 measured on COc1cc2nn([C@H]3CC[C@H](CN(C)C4CCN(c5cccc6c5n(C)c(=O)n6C5CCC(=O)NC5=O)CC4(F)F)CC3)cc2cc1NC(=O)c1cccc(C(F)(F)F)n1 (stereo partly shown) [I-710] = > 200 nM

DC50 measured on Cn1c(=O)n(C2CCC(=O)NC2=O)c2cccc(C#CC3CN(C[C@H]4CC[C@H](n5cc(NC(=O)c6cnn7ccc(N8C[C@H]9C[C@@H]8CO9)nc67)c(C(F)F)n5)CC4)CCO3)c21 (stereo partly shown) [I-27] = 10 to 100 nM

###

DC50 values for the compounds below.
- Assay target: IRAK4 (Homo sapiens)
- Construct: Degradation of IRAK4 in OCI-LY10 was quantitatively measured using Meso Scale Discovery technology; endogenous in cells; host or cells: OCI-LY10
- Run description: IRAK4 MSD Degradation in OCI-LY10
- Format: cell-based
- Test parameters: OCI-LY10 cells, 4 hrs incubation, MSD; read-out: IRAK4 degradation in OCI-LY10 at 4 hrs: DC50

The cases that follow already have their DC50 on record.
Compound	DC50
Cn1c(=O)n(C2CCC(=O)NC2=O)c2cccc(C#CCN3CCN(C[C@H]4CC[C@H](n5cc(NC(=O)c6cnn7ccc(N8CCOCC8)nc67)c(C(F)F)n5)CC4)CC3)c21 (some centres unmarked)	< 10 nM
Cn1c(=O)n(C2CCC(=O)NC2=O)c2cccc(C#CCN3CCN(C[C@H]4CC[C@H](n5cc(NC(=O)c6cnn7ccc(N8CCS(=O)(=O)CC8)nc67)c(C(F)F)n5)CC4)CC3)c21 (some centres unmarked)	> 200 nM

DC50 measured on CN1CCOCC1c1ccn2ncc(C(=O)Nc3cn([C@H]4CC[C@H](CN5CCN(CC#Cc6cccc7c6n(C)c(=O)n7C6CCC(=O)NC6=O)CC5)CC4)nc3C(F)F)c2n1 (some centres unmarked) = > 200 nM

DC50 measured on Cn1c(=O)n(C2CCC(=O)NC2=O)c2cccc(N3CCC(N(CC(F)F)C[C@H]4CC[C@H](n5cc(NC(=O)c6cnn7cccnc67)c(C(F)F)n5)CC4)CC3)c21 (some centres unmarked) = > 200 nM

DC50 measured on Cn1c(=O)n(C2CCC(=O)NC2=O)c2cccc(C#CC3CCN(C[C@H]4CC[C@H](n5cc(NC(=O)c6cnn7ccc(N8C[C@H]9C[C@@H]8CO9)nc67)c(C(F)F)n5)CC4)CC3)c21 (some centres unmarked) = < 10 nM

###

DC50 values for the compounds below.
- Assay target: IRAK4 (Homo sapiens, UniProt Q9NWZ3)
- Construct: Degradation of IRAK4 in OCI-LY10 was quantitatively measured using Meso Scale Discovery technology; endogenous in cells; host or cells: OCI-LY10
- Sequence (Q9NWZ3 1-460): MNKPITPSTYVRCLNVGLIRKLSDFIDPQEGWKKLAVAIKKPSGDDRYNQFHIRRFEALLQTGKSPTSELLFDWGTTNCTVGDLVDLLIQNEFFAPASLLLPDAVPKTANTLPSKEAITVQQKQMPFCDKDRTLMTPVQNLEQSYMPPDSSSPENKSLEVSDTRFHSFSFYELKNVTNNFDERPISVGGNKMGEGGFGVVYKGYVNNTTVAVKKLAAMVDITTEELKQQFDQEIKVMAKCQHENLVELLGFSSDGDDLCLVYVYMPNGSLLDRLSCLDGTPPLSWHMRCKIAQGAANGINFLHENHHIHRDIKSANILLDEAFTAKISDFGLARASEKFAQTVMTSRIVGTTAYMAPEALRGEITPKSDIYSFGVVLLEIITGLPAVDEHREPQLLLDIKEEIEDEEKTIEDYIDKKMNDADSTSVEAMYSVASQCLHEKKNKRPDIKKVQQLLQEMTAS
- Run description: IRAK4 MSD Degradation in OCI-LY10
- Format: cell-based
- Test parameters: OCI-LY10 cells, 24 hrs incubation, MSD; read-out: IRAK4 degradation in OCI-LY10 at 24 hrs: DC50

Compound	DC50
Cn1c(=O)n(C2CCC(=O)NC2=O)c2cccc([C@H]3C[C@@H](CN4CCN(C[C@H]5CC[C@H](n6cc(NC(=O)c7cnn8ccc(N9C[C@H]%10CC9CO%10)nc78)c(C(F)F)n6)CC5)CC4)C3)c21 (some centres unmarked) [I-78]	> 200 nM
Cn1c(=O)n(C2CCC(=O)NC2=O)c2cccc(C#CCN3CCN(C[C@H]4CC[C@H](n5cc(NC(=O)c6cnn7ccc(N8C[C@H]9CC[C@@H](C8)O9)nc67)c(C(F)F)n5)CC4)CC3)c21 (some centres unmarked) [I-290]	< 10 nM
Cc1cccc(C(=O)Nc2cc3cn([C@H]4CC[C@H](CN5CCC(c6cccc7c6n(C)c(=O)n7C6CCC(=O)NC6=O)C(F)(F)C5)CC4)nc3cn2)n1 (some centres unmarked) [I-614]	< 10 nM
Cn1c(=O)n(C2CCC(=O)NC2=O)c2cccc(N3CC(O[C@H]4CCN(C[C@H]5CC[C@H](n6cc(NC(=O)c7cnn8ccc(N9C[C@H]%10C[C@@H]9CO%10)nc78)c(C(F)F)n6)CC5)C[C@@H]4F)C3)c21 (some centres unmarked) [I-583]	> 200 nM
Cn1c(=O)n(C2CCC(=O)NC2=O)c2cccc(C3CCN(C[C@H]4CC[C@H](n5cc6cc(NC(=O)c7cccc(C(F)(F)F)n7)ccc6n5)CC4)CC3O)c21 (some centres unmarked) [I-460]	> 200 nM

DC50 measured on Cn1c(=O)n(C2CCC(=O)NC2=O)c2cccc(N3CCC(N4CCN([C@H]5CC[C@H](n6cc(NC(=O)c7cnn8ccc(N9C[C@H]%10C[C@@H]9CO%10)nc78)c(C(F)F)n6)CC5)CC4)CC3)c21 (some centres unmarked) [I-203] = > 200 nM

###

- Assay target: IRAK4 (Homo sapiens)
- Construct: Degradation of IRAK4 in OCI-LY10 was quantitatively measured using Meso Scale Discovery technology; endogenous in cells; host or cells: OCI-LY10
- Sequence (Q9NWZ3 1-460): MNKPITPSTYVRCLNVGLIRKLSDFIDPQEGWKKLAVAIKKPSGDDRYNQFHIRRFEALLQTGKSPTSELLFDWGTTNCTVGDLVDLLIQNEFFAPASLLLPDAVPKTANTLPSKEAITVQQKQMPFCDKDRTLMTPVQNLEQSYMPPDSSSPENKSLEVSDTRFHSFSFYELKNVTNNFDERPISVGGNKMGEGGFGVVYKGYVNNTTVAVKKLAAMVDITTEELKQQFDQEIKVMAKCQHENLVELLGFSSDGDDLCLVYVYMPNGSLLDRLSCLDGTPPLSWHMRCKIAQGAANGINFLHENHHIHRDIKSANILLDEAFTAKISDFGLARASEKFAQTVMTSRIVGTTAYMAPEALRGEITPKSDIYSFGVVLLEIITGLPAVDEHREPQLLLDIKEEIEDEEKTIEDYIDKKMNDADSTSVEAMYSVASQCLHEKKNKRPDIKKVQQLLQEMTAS
- Run description: IRAK4 MSD Degradation in OCI-LY10
- Assay type: cell-based
- Test parameters: OCI-LY10 cells, 24 hrs incubation, MSD; read-out: IRAK4 degradation in OCI-LY10 at 24 hrs: DC50
Metric name: DC50

The cases that follow already have their DC50 on record.
Compound	Result
CN(C[C@H]1CC[C@H](n2cc(NC(=O)c3cnn4ccc(N5C6COCC5C6)nc34)c(C(F)F)n2)CC1)C1CCN(c2cccc3c2n(C)c(=O)n3C2CCC(=O)NC2=O)CC1(F)F (some centres unmarked) [I-524]	0.01 to 0.1 µM
Cn1c(=O)n(C2CCC(=O)NC2=O)c2cccc(C3CN(C4CCN(C[C@H]5CC[C@H](n6cc(NC(=O)c7cnn8ccc(N9C[C@H]%10C[C@@H]9CO%10)nc78)c(C(F)F)n6)CC5)CC4(F)F)C3)c21 (some centres unmarked) [I-682]	< 0.01 µM

Tested system IRAK4 (Homo sapiens); DC50 recorded for Cn1c(=O)n(C2CCC(=O)NC2=O)c2cccc(CN3CC4(CCN(Cc5ccc(-n6cc(NC(=O)c7cnn8ccc(N9C[C@H]%10C[C@@H]9CO%10)nc78)c(C(F)F)n6)cc5)CC4)C3)c21 (some centres unmarked) [I-702] was 0.01 to 0.1 µM

Tested system IRAK4 (Homo sapiens); DC50 recorded for CN1CCOCC1c1ccn2ncc(C(=O)Nc3cn([C@H]4CC[C@H](CN5CCC(OCC#Cc6cccc7c6n(C)c(=O)n7C6CCC(=O)NC6=O)CC5)CC4)nc3C(F)F)c2n1 (some centres unmarked) [I-311] was > 0.2 µM

Tested system IRAK4 (Homo sapiens); DC50 recorded for O=C1CCC(c2ccc(C#CCN3CCN(C[C@H]4CC[C@H](n5cc(NC(=O)c6cnn7ccc(N8C[C@H]9C[C@@H]8CO9)nc67)c(C(F)F)n5)CC4)CC3)cc2)C(=O)N1 (some centres unmarked) [I-437] was > 0.2 µM

Cited source: patent US12091411B2
